Values from patent US7282496B2

Molecular target: TNF-α converting enzyme (TACE) (Homo sapiens)
Sequence (P78536 215-824, species assumed): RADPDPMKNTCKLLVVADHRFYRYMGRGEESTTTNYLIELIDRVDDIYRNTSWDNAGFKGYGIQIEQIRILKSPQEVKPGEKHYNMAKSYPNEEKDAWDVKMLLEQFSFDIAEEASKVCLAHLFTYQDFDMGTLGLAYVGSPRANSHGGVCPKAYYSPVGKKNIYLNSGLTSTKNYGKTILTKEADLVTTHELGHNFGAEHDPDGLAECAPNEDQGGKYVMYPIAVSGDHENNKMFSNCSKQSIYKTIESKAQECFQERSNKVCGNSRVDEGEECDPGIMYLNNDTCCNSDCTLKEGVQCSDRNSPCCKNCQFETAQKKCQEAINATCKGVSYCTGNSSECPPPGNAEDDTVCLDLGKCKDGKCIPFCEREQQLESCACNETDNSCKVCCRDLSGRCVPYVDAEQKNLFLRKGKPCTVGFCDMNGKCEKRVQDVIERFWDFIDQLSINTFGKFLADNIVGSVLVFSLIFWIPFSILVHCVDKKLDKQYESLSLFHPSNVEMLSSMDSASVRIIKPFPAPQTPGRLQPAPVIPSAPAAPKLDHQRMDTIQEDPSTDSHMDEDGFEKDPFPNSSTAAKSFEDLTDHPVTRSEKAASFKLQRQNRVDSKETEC
Assay: TACE inhibition, fluorescent peptidyl substrate test procedure
Assay type: biochemical
Details: in vitro enzyme inhibition
QUANTITY: log10(IC50) (log10 of the value in nM)

• C=C=CCOc1ccc(S(=O)(=O)N2CCSC(C)(C)[C@@H]2C(=O)NO)cc1 [Example 26] = 2.06
• CC=C=CCOc1ccc(S(=O)(=O)N(C)C(C(=O)NO)C(C)C)cc1 (stereo not shown) [Example 22] = 1.68
• C=C=CCOc1ccc(S(=O)(=O)NC(C(=O)NO)C(C)C)cc1 (stereo not shown) [Example 13] = 1.71
• CC=C=CCOc1ccc(S(=O)(=O)N2Cc3ccccc3N(C(=O)c3ccccc3)CC2C(=O)NO)cc1 (stereo not shown) [Example 47] = 3.15
• C=C=CCOc1ccc(S(=O)(=O)N2Cc3ccccc3N(C(C)=O)CC2C(=O)NO)cc1 (stereo not shown) [Example 45] = 1.85
• C=C=CCOc1ccc(S(=O)(=O)N(C)C(C(=O)NO)C(C)C)cc1 (stereo not shown) [Example 16] = 1.56
• CC=C=CCOc1ccc(S(=O)(=O)NC(C(=O)NO)C(C)C)cc1 (stereo not shown) [Example 19] = 1.79
